Can you tell me AC50 for the items I'm about to list?
- STUDY TARGET: rat Gamma-Aminobutyric Acid Type A Receptor, Non-Selective (GABAR-NonSelective), Gabra1 (gene 29705) (UniProt P62813)
- Sequence (P62813 whole entry, looked up): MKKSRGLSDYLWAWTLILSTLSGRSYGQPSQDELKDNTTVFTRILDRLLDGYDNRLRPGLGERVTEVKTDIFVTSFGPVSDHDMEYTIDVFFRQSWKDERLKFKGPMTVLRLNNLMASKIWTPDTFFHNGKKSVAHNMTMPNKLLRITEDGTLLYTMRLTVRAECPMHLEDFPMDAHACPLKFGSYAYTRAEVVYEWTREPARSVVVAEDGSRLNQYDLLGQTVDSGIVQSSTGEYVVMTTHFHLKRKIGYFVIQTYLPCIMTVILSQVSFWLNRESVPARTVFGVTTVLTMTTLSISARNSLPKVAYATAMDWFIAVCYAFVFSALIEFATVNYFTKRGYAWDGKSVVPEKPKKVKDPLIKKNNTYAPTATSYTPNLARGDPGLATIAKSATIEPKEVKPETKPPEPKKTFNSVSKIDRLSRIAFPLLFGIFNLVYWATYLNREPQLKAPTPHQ
- TEST DESCRIPTION: NVS_LGIC_rGABAR_NonSelective: NovaScreen (NVS) Ligand-Gated Ion Channel Assay for rat Gamma-Aminobutyric Acid Type A Receptor, Non-Selective (GABAR-NonSelective) (AID 2283326)
Inconclusive results are not listed. Activity calls are given as the source filed them. Rule for the calls: active = hit-call score of the fitted dose curve at least 0.9, where 1 is the maximum; inconclusive = response in the unintended direction; inactive = score below 0.9.

CCOC(=O)[C@]1(c2ccccc2)Oc2ccccc2[C@@H]1N ... 1.08 µM (active)

// input: 2 compounds below; output: AC50 for each
1. O=C(N[C@H](c1ccccc1)[C@@H]1CN2CCC1CC2)c1c(Cl)ccc(C(F)(F)F)c1Cl
2. O=C(O)C1C2CCC(O2)C1C(=O)O (centres undefined)

Key:
1. 0.238 µM (active)
2. 2.14 µM (active)

---

- Read-out: cysteine-aspartic acid protease (CASP8), CASP8 (gene 841)
- TEST DESCRIPTION: LTEA_HepaRG_CASP8: Life Technologies and Expression Analysis (LTEA) Assay for cysteine-aspartic acid protease (CASP8) using HepaRG (AID 2283480)
- COND: mRNA level, 48 h; actives raise or lower the signal
Active and inactive are the calls of the source. Rule for the calls: active = hit-call score of the fitted dose curve at least 0.9, where 1 is the maximum; inactive = score below 0.9.
Respond only with the outcome that fits, drawn from active, inactive

O=[N+]([O-])c1ccc(Oc2ccc(Cl)cc2Cl)cc1 ... inactive

Exercise: What did the test return for CC(C)N(Cc1ccccc1)C(=O)C(C)(C)C ?
Key: inactive

---

- TEST DESCRIPTION: BSK_SAg_PBMCCytotoxicity: PBMC Cytotoxicity Assessment in the BioMAP Diversity Plus: SAg Assay (AID 2283093);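 note: PBMC viability measured as Alamar Blue reduction fluorescence at 546/580 nm; fitted both ways against DMSO so a hit may be loss or gain of signal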;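 for AC50: PBMC superantigen activated with SEB plus TSST-1 one hour after compound addition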
- COND: primary human HUVEC with PBMC
Calls of active or inactive are those of the source. The calls were made as follows: active = hit-call score of the fitted dose curve at least 0.9, where 1 is the maximum; inactive = score below 0.9.
QUANTITY NAME: AC50

Oc1ccc2ccc3cccc4ccc1c2c34 ... 8.38 µM (active)
CN(C)c1ccccc1 ... inactive
CCCCCOC(=O)c1ccccc1C(=O)OCCCCC ... inactive
Cc1ccc(N)c(N)c1 ... inactive

---

- Read-out: Phosphatase and tensin (PTEN), PTEN (gene 5728)
- TEST DESCRIPTION: LTEA_HepaRG_PTEN: Life Technologies and Expression Analysis (LTEA) Assay for Phosphatase and tensin (PTEN) using HepaRG (AID 2283523)
- COND: mRNA level, 48 h; actives raise or lower the signal
The source made the active and inactive calls. Rule for the calls: active = hit-call score of the fitted dose curve at least 0.9, where 1 is the maximum; inactive = score below 0.9.
Return exactly one item of y (active), n (inactive)

CCC12COCN1COC2 ... n
C=CCc1ccc2c(c1)OCO2 ... n
Nc1cc(Cl)cc(C(=O)O)c1Cl ... n
CC(C)(OOC(C)(C)c1ccccc1)c1ccccc1 ... n

Exercise: Which result was noted for this molecule in the test: CCN(CC)N=O
Key: n

Exercise: Hello, I am checking results. What call was entered for Cc1ccc([N+](=O)[O-])cc1 ?
Key: n

Exercise: Give the logged outcome of this assay for the following molecule: Nc1ccc(N=Nc2ccccc2)cc1
Key: y

Exercise: Would you mind telling me which call this test gave O=C(Nc1ccccc1)c1ccccc1I ?
Key: n

---

- TEST DESCRIPTION: ATG_AP_1_CIS: Attagene CIS-FACTORIAL HepG2 Assay for human Activator Protein 1 (AP-1) (AID 2282931)
- COND: HepG2 Attagene cis-factorial AP-1 reporter mRNA; actives raise or lower the signal
The source made the active and inactive calls. The calls were made as follows: active = hit-call score of the fitted dose curve at least 0.9, where 1 is the maximum; inactive = score below 0.9.
# valid calls are label 1 for active, label 0 for inactive; nothing else

Here's what some known entries look like.
Oc1ccc2ccc3cccc4ccc1c2c34 ... label 0
CN(C)c1ccc(C(=O)c2ccc(N(C)C)cc2)cc1 ... label 0
CC(C)(OOC(C)(C)c1ccccc1)c1ccccc1 ... label 1
CCCCCCCCn1sccc1=O ... label 0
Cc1cc(N=Nc2ccccc2C)ccc1N ... label 0
C[N+](C)(C)CC1CO1 (configuration not stated) ... label 0

Kindly consider the entry below.
Exercise: # fetch the recorded call for ClC1=C(Cl)C2(Cl)C3C(Cl)C=CC3C1(Cl)C2(Cl)Cl (configuration not stated) here
Key: label 1
